- ASSAY_TARGET: Neuronal acetylcholine receptor subunit alpha-7 (Rattus norvegicus, UniProt Q05941)
- Sequence (Q05941 whole entry): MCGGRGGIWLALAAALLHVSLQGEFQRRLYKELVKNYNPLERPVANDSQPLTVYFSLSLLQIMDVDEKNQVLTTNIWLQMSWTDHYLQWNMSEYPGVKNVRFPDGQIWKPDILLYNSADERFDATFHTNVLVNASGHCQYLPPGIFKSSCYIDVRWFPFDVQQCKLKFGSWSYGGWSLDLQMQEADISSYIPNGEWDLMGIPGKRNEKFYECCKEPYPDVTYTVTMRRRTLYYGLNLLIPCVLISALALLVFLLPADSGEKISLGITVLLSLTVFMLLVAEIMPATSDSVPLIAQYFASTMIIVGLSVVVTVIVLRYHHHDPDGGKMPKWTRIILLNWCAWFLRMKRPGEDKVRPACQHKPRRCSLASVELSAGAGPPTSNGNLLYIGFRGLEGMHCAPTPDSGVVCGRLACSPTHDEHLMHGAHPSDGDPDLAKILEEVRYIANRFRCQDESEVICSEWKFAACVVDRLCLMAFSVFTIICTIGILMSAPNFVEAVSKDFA
- EXPERIMENT_SUMMARY: Displacement of [3H]epibatadine from rat alpha7 nAChR expressed in HEK293 cells by scintillation counting analysis
Please go through the items and note down their Ki.
Provide the reading as a plain figure in µM.

# input Suppose we examine the compound [N-]=[N+]=NCCCCC#Cc1cncc(OC[C@@H]2CCN2)c1 ; what Ki value has been reported?
# output 2.7

# input Quick one: Ki of CCCCC#Cc1cncc(OC[C@@H]2CCN2)c1 ?
# output 1.9

# input State the recorded Ki for this entry: OCCCCc1cn(-c2cncc(OC[C@@H]3CCN3)c2)nn1
# output 100

# input Name the reported Ki value associated with the compound CCCCC#Cc1cncc(OC[C@H]2CCCN2)c1
# output 9.1

# input Value lookup for Ki; key = CCCCC#Cc1cncc(OC[C@@H]2CCCN2)c1
# output 35

# input For the compound shown here, c1ncc(-c2nnn3c2CCCC3)cc1OC[C@@H]1CCN1 , give the reported Ki.
# output 51

# input Given the compound CCCCC#Cc1cncc(OC[C@H]2CCN2)c1 , what is its reported Ki?
# output 13

Source of measurements: ChEMBL document CHEMBL3286394
